Measured values drawn from patent US20230272086A1 for this set.

Measured EC50 of individual entries
Target Or System: T1, human ST2 (hST2, Interleukin-1 receptor-like 1 isoform A) on cells (human, UniProt Q01638 19-556)
T1 construct: the same id is used for hST2 naturally expressed on KU812 cells and on human CD4+ T cells; also called HEK293T-hST2-NFκB-Luciferase; KU812-NFκB-Luciferase
T1 sequence: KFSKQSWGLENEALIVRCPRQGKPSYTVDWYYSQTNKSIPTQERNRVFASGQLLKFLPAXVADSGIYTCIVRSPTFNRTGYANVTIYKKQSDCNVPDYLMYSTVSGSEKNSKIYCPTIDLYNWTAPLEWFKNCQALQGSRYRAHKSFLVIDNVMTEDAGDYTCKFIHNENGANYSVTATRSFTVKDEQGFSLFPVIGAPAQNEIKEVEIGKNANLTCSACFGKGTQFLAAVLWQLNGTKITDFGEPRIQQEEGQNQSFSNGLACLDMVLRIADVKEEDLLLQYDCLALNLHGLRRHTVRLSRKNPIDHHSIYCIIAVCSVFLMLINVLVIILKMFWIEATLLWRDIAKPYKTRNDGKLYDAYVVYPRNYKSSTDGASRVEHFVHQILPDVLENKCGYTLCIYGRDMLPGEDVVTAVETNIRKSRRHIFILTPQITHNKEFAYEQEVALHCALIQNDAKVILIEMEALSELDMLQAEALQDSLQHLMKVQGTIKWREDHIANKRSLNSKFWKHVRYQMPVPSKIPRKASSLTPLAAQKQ
Protocol Summary: flow cytometry on HEK293T-hST2-NFκB-Luciferase cells

Binder	EC50 (nM)
GSK3772847 (antibody STLM208 in CN104411333, prepared in-house) (antibody, human IgG2, kappa, V domains shown, Control anti-ST2 antibody) VH: EVQLLESGGGLVQPGGSLRLSCAASGFTFSIYDMIWVRQAPGKGLEWVSSIRGEGGGTYYADSVKGRFTISRDNSKNTLYLQMNSLRAEDTAVYYCARDPWSTEGSFFVLDYWGQGTLVTVSS VL: EIVLTQSPATLSLSPGERATLSCRASQSVDDDLAWYQQKPGQAPRLLIYDASNRATGIPARFSGSGSGTDFTLTISSLEPEDFAVYYCQQYITAPLTFGQGTKVEIKR	0.676
Chimeric 31C8 (antibody, human IgG2, kappa, V domains shown, also called xi31C8) VH: QVQLQQSGPELVRPGASVTLSCKASGYIFIDSEMHWVKQTPVHGLEWIGAIDPETGDTVYNQKFKGKATLTADKSSSTASMELSSLTSEDSAVYYCTGSTTDYYFAYWGQGTTLTVSS VL: DIVMTQAAFSNPVTLGTSASISCRSSKSLLHSNGIIYLYWYLQKPGQSPQLLIYQMSNLASGVPDRFSSSGSGTDFTLRISRVEAEDVGVYYCAQNLELPFTFGSGTKLEIKR	0.405
Humanized 31C8-1.1 (antibody, human IgG2, kappa, V domains shown, also called hz31C8-1.1; hz31C81-1.1) VH: EVQLVQSGAEVKKPGATVKISCKASGYIFIDSEMHWVQQAPGKGLEWMGAIDPETGDTVYAEKFQGRVTITADKSSSTAYMELSSLRSEDTAVYYCTGSTTDYYFAYWGQGTLVTVSS VL: DIQMTQSPSSLSASVGDRVTITCRSSKSLLHSNGIIYLYWYQQKPGKAPKLLIYQLSNLASGVPSRFSSSGSGTDFTLTISSLQPEDFATYYCAQNLELPFTFGQGTKVEIKR	0.384
Humanized 31C8-1.2 (antibody, human IgG2, kappa, V domains shown, also called hz31C8-1.2; hz31C81-1.2) VH: QVQLVQSGAKVKKPGATVKISCKASGYIFIDSEMHWVQQAPGKGLEWMGAIDPETGDTVYAKKFKGRVTITADKSSSTAYMELSSLRSEDTAVYYCTGSTTDYYFAYWGQGTLVTVSS VL: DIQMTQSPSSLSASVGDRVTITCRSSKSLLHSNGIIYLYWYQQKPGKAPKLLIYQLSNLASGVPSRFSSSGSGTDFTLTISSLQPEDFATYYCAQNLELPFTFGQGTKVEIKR	0.468
